- assay_system: Amyloid-beta precursor protein (Homo sapiens)
- Sequence (P05067 whole entry): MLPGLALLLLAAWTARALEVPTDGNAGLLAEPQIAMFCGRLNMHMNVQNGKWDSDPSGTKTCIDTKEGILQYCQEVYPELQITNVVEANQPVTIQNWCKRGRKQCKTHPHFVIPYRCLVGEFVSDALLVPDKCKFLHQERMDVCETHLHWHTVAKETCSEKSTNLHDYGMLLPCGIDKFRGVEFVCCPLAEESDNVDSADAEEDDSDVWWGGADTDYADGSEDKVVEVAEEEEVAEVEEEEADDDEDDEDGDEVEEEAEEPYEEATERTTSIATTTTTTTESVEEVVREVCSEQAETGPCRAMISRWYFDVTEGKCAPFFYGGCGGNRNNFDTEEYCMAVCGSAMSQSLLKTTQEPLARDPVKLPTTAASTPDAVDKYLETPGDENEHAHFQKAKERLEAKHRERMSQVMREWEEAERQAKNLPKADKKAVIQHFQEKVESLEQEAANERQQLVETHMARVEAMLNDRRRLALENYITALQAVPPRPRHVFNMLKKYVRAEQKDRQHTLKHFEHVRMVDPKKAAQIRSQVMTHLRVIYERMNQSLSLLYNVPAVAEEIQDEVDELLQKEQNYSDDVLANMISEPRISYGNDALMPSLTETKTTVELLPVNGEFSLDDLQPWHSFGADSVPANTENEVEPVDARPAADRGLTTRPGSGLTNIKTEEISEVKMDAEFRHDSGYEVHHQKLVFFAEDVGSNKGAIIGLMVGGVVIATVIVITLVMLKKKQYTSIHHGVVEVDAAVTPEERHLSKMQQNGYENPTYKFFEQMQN
- assay_text: Inhibition of self-induced amyloid beta (1 to 42) (unknown origin) aggregation at 25 uM by T-fluorescence assay relative to control
Recorded inhibition by entry

smiles_input | inhibition [%]
CN(C)c1ccc(/C=C/C(=O)c2ccc(N(C)C)cc2O)cc1 | 64.3
CCN(CCCCOc1ccc(/C=C/C(=O)c2ccc(N(C)C)cc2O)cc1)Cc1ccccc1OC | 70.1
CCN(CC)CCCOc1ccc(C(=O)/C=C/c2ccc(N(C)C)cc2)c(O)c1 | 64.1
COc1ccc(/C=C/C(=O)c2ccc(N(C)C)cc2O)cc1 | 36.1
CCN(CCCCOc1ccc(/C=C/C(=O)c2ccc(N(C)C)cc2O)cc1)Cc1ccccc1N(C)C | 75.8
CCN(CCCOc1ccc(C(=O)/C=C/c2ccccc2)c(O)c1)Cc1ccccc1N(C)C | 23
COc1ccc(C(=O)/C=C/c2ccc(N(C)C)cc2)c(O)c1 | 59.7

Entry source: ChEMBL document CHEMBL4813970
